Source of measurements: patent US20250282723A1

Consider the following compounds; for each one, report its FI with αS.
target: aggregated αS (Homo sapiens, UniProt P37840)
Construct: made in house; host or cells: E. coli BL21 (plasmid pET5α aSynWT)
method: Fluorescence emission and fluorescence enhancement of probes bound versus unbound to aggregated αS
Format: binding
condition: probes of FIG. 14; fold increase of fluorescence, bound vs unbound, aggregated αS 5 μM, probe 4 μM
API doc: respond with a numeric literal and nothing else, no unit.

Exam item: Name the reported FI with αS value associated with the compound CCC1CCCCN1c1ccc2cc(/C=C(\C#N)C(=O)NCCOCCOCCOC)ccc2c1 (racemic)
Marked response: 4.6

Exam item: Input CCCC1CCCCN1c1ccc2cc(/C=C(\C#N)C(=O)NCCOCCOCCOC)ccc2c1 (stereo not shown)
Marked response: 5.2

Exam item: Input COCCOCCOCCNC(=O)/C(C#N)=C/c1ccc2cc(N3CCCCC3C)ccc2c1 (racemic)
Marked response: 3.8

Exam item: Input COCCOCCOCCNC(=O)C(C#N)=Cc1ccc2cc(N3CCCCC3)ccc2c1 (mixture of isomers)
Marked response: 3.0
